Protocol summary: Plasma kinetics in rat following intravenous and oral administration
Type: in vivo, Sprague Dawley rats
Cond: male, Sprague Dawley, rat, plasma, iv, 10 mg/kg, intravenous 10 mg/kg, male rats, individual animals; read-out: C0
Parameter measured: C0 (ng/mL)
Note: unit ng/mL is implicit; provide only the numeric part.

                                   compound  quantitative_readout
0  N=C(N)NN=CC=Cc1cccn1-c1ccccc1Br [Compound 3, acetate]                  5520

Q) Quick one: C0 of N=C(N)NN=CC=Cc1cccn1-c1ccccc1[N+](=O)[O-] [Compound 2, acetate] ?
A) 3020

Hey, just so you know, these numbers are from patent US8058306B2.
